Target: Intestinal-type alkaline phosphatase (Mus musculus)
result.type: Ki (µM)
Answer with a number only, understood to be in µM.

Kindly state the measured Ki obtained for Cc1ccc(C)c(NC(=O)CNS(=O)(=O)c2ccc3[nH]c(=O)oc3c2)c1 with Intestinal-type alkaline phosphatase (Mus musculus).
3.2

* * *

Biological target: Intestinal-type alkaline phosphatase (Homo sapiens, UniProt P09923)
Sequence (P09923 whole entry): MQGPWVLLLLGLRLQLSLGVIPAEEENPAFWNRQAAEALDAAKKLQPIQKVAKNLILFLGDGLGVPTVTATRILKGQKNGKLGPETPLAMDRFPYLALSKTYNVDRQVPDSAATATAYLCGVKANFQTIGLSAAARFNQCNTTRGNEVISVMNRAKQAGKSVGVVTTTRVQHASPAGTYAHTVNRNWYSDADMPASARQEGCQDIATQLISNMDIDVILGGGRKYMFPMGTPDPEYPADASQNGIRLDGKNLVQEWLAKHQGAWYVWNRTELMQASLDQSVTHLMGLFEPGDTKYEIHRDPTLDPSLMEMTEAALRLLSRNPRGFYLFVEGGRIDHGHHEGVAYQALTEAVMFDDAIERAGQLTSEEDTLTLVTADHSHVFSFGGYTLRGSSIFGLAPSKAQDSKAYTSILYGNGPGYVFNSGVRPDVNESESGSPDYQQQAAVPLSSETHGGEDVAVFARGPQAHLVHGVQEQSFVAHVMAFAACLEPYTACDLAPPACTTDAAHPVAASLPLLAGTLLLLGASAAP
Assay: Inhibition of human FLAG-tagged IAP expressed in African green monkey COS1 cells using p-nitrophenyl phosphate as substrate after 30 mins by chemiluminescence assay
Assay type: cell-based, COS-1
result.type: IC50 (µM)
Answer in µM, number only, no unit symbol.

Given Cc1ccc(C)c(NC(=O)CNS(=O)(=O)c2ccc3[nH]c(=O)oc3c2)c1 , state its recorded IC50.
27.6

* * *

Molecular target: UniProtKB P24823
Sequence (P24823 whole entry): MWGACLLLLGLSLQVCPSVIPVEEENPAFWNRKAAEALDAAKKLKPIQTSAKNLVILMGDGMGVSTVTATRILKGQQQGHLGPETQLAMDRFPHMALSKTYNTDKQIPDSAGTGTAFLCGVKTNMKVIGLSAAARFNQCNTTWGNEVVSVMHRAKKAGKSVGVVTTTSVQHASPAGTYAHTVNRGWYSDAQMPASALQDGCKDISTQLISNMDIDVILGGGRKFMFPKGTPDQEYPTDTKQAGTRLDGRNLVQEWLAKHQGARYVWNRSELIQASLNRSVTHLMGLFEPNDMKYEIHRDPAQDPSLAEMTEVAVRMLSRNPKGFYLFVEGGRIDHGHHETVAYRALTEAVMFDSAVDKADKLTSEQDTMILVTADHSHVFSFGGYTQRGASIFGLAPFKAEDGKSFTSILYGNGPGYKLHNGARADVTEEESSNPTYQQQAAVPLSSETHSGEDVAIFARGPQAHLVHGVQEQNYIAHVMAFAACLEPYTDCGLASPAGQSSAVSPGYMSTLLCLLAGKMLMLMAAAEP
result.type: IC50
Put down the number, then write its unit next to it.

Request: IC50, test system UniProtKB P24823, entry Cc1ccc(C)c(NC(=O)CNS(=O)(=O)c2ccc3[nH]c(=O)oc3c2)c1
21.1 µM

* * *

Target: Alkaline phosphatase, tissue-nonspecific isozyme (Homo sapiens, UniProt P05186)
Sequence (P05186 whole entry): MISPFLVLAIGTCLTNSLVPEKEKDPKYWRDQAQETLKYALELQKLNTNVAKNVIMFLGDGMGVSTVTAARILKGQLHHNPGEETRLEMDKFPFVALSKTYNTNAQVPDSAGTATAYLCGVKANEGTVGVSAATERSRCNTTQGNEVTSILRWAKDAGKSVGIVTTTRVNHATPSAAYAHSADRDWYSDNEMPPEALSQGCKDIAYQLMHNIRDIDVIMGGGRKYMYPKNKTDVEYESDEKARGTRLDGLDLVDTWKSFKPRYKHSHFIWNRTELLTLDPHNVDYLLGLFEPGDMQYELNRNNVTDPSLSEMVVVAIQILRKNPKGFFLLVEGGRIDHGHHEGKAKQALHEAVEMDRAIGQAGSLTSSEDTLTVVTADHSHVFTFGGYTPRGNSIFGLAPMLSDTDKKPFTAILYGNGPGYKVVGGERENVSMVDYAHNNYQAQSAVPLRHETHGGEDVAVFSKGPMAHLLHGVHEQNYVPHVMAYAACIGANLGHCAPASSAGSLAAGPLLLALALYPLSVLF
Assay: Inhibition of FLAG-tagged TNAP (unknown origin) expressed in African green monkey COS1 cells after 30 mins by chemiluminescence assay
pIC50: −log10 of the molar value.
Catalogue of pIC50 values

Below are worked cases with known answers.
smi | recorded.measurement
COc1ccc(CNC(=O)NS(=O)(=O)c2ccc3[nH]c(=O)oc3c2)c(OC)c1 | < 4.00
Cc1ccc(C)c(NC(=O)NS(=O)(=O)c2ccc3[nH]c(=O)oc3c2)c1 | < 4.00
O=C(CCNS(=O)(=O)c1ccc2[nH]c(=O)oc2c1)NCc1ccc2c(c1)OCO2 | < 4.00
O=C(CCNS(=O)(=O)c1ccc2[nH]c(=O)oc2c1)NCCc1ccc2c(c1)OCO2 | < 4.00

State the recorded pIC50 for this entry: O=C(CCNS(=O)(=O)c1ccc2[nH]c(=O)oc2c1)Nc1ccc2c(c1)OCO2
< 4.00

Given the compound O=C(CNS(=O)(=O)c1ccc2[nH]c(=O)oc2c1)NCCc1ccc2c(c1)OCO2 , what is its reported pIC50?
< 4.00

Form field: reported pIC50 of Cc1ccc(C)c(NC(=O)CNS(=O)(=O)c2ccc3[nH]c(=O)oc3c2)c1
4.46

Value lookup for pIC50; key = O=C(Nc1ccc2c(c1)OCO2)NS(=O)(=O)c1ccc2[nH]c(=O)oc2c1
< 4.00

Can you look up the measured pIC50 of COc1ccc(NC(=O)NS(=O)(=O)c2ccc3[nH]c(=O)oc3c2)cc1OC for me?
< 4.00

Requested read-out: pIC50. Entry: N#Cc1ccc(NC(=O)NS(=O)(=O)c2ccc3[nH]c(=O)oc3c2)cc1
< 4.00

* * *

Molecular target: Intestinal-type alkaline phosphatase (Mus musculus, UniProt P24822)
Sequence (P24822 whole entry): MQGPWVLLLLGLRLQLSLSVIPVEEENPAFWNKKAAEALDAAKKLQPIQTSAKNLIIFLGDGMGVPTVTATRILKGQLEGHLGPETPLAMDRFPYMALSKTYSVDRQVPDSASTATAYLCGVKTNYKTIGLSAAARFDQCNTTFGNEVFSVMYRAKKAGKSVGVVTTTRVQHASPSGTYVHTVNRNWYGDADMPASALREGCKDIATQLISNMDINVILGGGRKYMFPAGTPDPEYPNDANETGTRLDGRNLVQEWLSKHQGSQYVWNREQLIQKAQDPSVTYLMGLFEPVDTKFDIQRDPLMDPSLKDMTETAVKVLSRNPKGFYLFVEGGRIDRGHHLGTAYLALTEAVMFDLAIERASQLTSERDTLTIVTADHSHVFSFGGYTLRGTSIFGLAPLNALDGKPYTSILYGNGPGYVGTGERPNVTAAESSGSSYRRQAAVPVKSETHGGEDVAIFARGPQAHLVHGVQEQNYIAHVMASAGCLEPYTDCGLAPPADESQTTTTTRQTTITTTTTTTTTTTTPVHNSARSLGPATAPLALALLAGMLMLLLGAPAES
Assay: Inhibition of mouse duodenal-specific FLAG-tagged IAP expressed in African green monkey COS1 cells after 30 mins by chemiluminescence assay
Type: cell-based, COS-1
result.type: IC50 (µM)
Lab book: enter the figure in µM, no units written.

smi | result.type | unit.name | recorded.measurement
Cc1ccc(C)c(NC(=O)CNS(=O)(=O)c2ccc3[nH]c(=O)oc3c2)c1 | IC50 | µM | 0.54
O=C(CCNS(=O)(=O)c1ccc2[nH]c(=O)oc2c1)NCc1ccc2c(c1)OCO2 | IC50 | µM | 2.6
N#Cc1cccc(NC(=O)CCNS(=O)(=O)c2ccc3nc(O)oc3c2)c1 | IC50 | µM | 1.82
O=C(CCNS(=O)(=O)c1ccc2[nH]c(=O)oc2c1)NCCc1ccc2c(c1)OCO2 | IC50 | µM | 19
O=C(CCNS(=O)(=O)c1ccc2[nH]c(=O)oc2c1)Nc1ccc2c(c1)OCO2 | IC50 | µM | 12
O=C(CCNS(=O)(=O)c1ccc2[nH]c(=O)oc2c1)NCCCc1ccc2c(c1)OCO2 | IC50 | µM | 44
COc1cccc(CNC(=O)NS(=O)(=O)c2ccc3[nH]c(=O)oc3c2)c1 | IC50 | µM | 40
O=C(CCCNS(=O)(=O)c1ccc2[nH]c(=O)oc2c1)NCc1ccc2c(c1)OCO2 | IC50 | µM | 45

Looking for the measured IC50 of COc1ccc(CNC(=O)NS(=O)(=O)c2ccc3[nH]c(=O)oc3c2)c(OC)c1 , can you help?
89
